Tested on: M14
assay.procedure: Growth inhibition of human M14 cells assessed as cell growth incubated for 48 hrs by sulforhodamine B assay
Assay type: functional
Set-up: concentration or dose not given beside the values
In this section, each of the compounds is paired with its reported Activity.

{"compound": "O=C([O-])CCc1ccc2c(=O)c3sc4c(=O)c5ccccc5c(=O)c4c3c(=O)c2c1.[Na+]", "Activity [%]": -92.46}
{"compound": "CC(C)(C)OC(=O)NCC1CN(C(=O)CCc2ccc3c(=O)c4sc5c(=O)c6ccccc6c(=O)c5c4c(=O)c3c2)C1", "Activity [%]": -97.99}
{"compound": "NCC1CN(C(=O)CCc2ccc3c(=O)c4sc5c(=O)c6ccccc6c(=O)c5c4c(=O)c3c2)C1.O=C(O)C(F)(F)F", "Activity [%]": -93.82}
{"compound": "CC(C)(O)C(O)CCc1ccc2c(=O)c3sc4c(=O)c5ccccc5c(=O)c4c3c(=O)c2c1 (stereo not given)", "Activity [%]": -93.82}
{"compound": "O=c1c2ccccc2c(=O)c2c1sc1c(=O)c3ccc(CCCO)cc3c(=O)c12", "Activity [%]": -94.97}

====

In this section, each of the molecules is paired with its reported Activity.
System: RPMI-8226
assay.procedure: Growth inhibition of human RPMI8226 cells assessed as cell growth incubated for 48 hrs by sulforhodamine B assay
Type: functional
Parameters: concentration or dose not given beside the values
measured.property: Activity

{"molecule": "CC(C)(C)OC(=O)NCC1CN(C(=O)CCc2ccc3c(=O)c4sc5c(=O)c6ccccc6c(=O)c5c4c(=O)c3c2)C1", "measurement": "-36.74%"}
{"molecule": "NCC1CN(C(=O)CCc2ccc3c(=O)c4sc5c(=O)c6ccccc6c(=O)c5c4c(=O)c3c2)C1.O=C(O)C(F)(F)F", "measurement": "-39.84%"}
{"molecule": "O=C([O-])CCc1ccc2c(=O)c3sc4c(=O)c5ccccc5c(=O)c4c3c(=O)c2c1.[Na+]", "measurement": "-23.33%"}
{"molecule": "O=c1c2ccccc2c(=O)c2c1sc1c(=O)c3ccc(CCCO)cc3c(=O)c12", "measurement": "-37.51%"}
{"molecule": "CC(C)(O)C(O)CCc1ccc2c(=O)c3sc4c(=O)c5ccccc5c(=O)c4c3c(=O)c2c1 (stereo not given)", "measurement": "-39.84%"}

====

Tested on: KM12
assay.procedure: Growth inhibition of human KM12 cells assessed as cell growth incubated for 48 hrs by sulforhodamine B assay
Format: functional
Set-up: concentration or dose not given beside the values
In this section, each of the compounds is paired with its reported Activity.
measured.property: Activity (%)

{"compound": "O=C([O-])CCc1ccc2c(=O)c3sc4c(=O)c5ccccc5c(=O)c4c3c(=O)c2c1.[Na+]", "units.of.measure": "%", "measurement": -4.86}
{"compound": "CC(C)(C)OC(=O)NCC1CN(C(=O)CCc2ccc3c(=O)c4sc5c(=O)c6ccccc6c(=O)c5c4c(=O)c3c2)C1", "units.of.measure": "%", "measurement": -27.78}
{"compound": "O=c1c2ccccc2c(=O)c2c1sc1c(=O)c3ccc(CCCO)cc3c(=O)c12", "units.of.measure": "%", "measurement": -60.46}
{"compound": "CC(C)(O)C(O)CCc1ccc2c(=O)c3sc4c(=O)c5ccccc5c(=O)c4c3c(=O)c2c1 (stereo not given)", "units.of.measure": "%", "measurement": -76.76}
{"compound": "NCC1CN(C(=O)CCc2ccc3c(=O)c4sc5c(=O)c6ccccc6c(=O)c5c4c(=O)c3c2)C1.O=C(O)C(F)(F)F", "units.of.measure": "%", "measurement": -76.76}
